Tested on: Human alphaherpesvirus 2
assay notes: Antiviral activity against Herpes simplex virus 2 G
Assay type: functional, organism-based
condition context: Human alphaherpesvirus 2, strain G
pIC50: −log10 of the molar value.
endpoint name: pIC50

>>> reported_measurement("Nc1ncnc2c1ncn2CCOCP(=O)(O)O [ADEFOVIR]")
4.11

---

System: Escherichia coli
assay notes: Antibacterial activity against ESBL-producing Escherichia coli BW55 after 24 hrs by broth microdilution method
Format: functional
condition context: BW55, 24 h
endpoint name: MIC

>>> reported_measurement("CO/N=C(\\C(=O)N[C@@H]1C(=O)N2C(C(=O)O)=C(CSc3nc(=O)c(O)nn3C)CS[C@H]12)c1csc(N)n1")
"32 µg/mL"
>>> reported_measurement("O=P(Oc1ccccc1)(Oc1ccccc1)[C@](O)(CCl)c1ccc(Cl)cc1")
"32 µg/mL"
>>> reported_measurement("C[C@](O)(CCl)P(=O)(Oc1ccccc1)Oc1ccccc1")
"64 µg/mL"
>>> reported_measurement("CC1(C)COP(=O)([C@@](O)(CCl)c2ccc(Cl)cc2)OC1")
"64 µg/mL"
>>> reported_measurement("O=P(Oc1ccccc1)(Oc1ccccc1)[C@@]1(O)c2ccccc2C[C@@H]1Cl (mixture of isomers)")
"128 µg/mL"
>>> reported_measurement("O=P(Oc1ccccc1)(Oc1ccccc1)[C@@]1(O)CCC[C@@H]1Cl (mixture of isomers)")
"128 µg/mL"
>>> reported_measurement("O=C(N[C@H](CO)[C@H](O)c1ccc([N+](=O)[O-])cc1)C(Cl)Cl")
"8 µg/mL"
>>> reported_measurement("O=P(Oc1ccccc1)(Oc1ccccc1)[C@](O)(CCl)c1ccccc1")
"64 µg/mL"
>>> reported_measurement("C[C@@H]1O[C@@H]1P(=O)(O)O")
"32 µg/mL"

---

Measured MBC, listed per entry.
Test system: Staphylococcus aureus
assay notes: Bactericidal activity against methicillin-resistant Staphylococcus aureus BW61 after 24 hrs by CFU counting assay
Assay type: functional
condition context: BW61, 24 h
endpoint name: MBC (µg/mL)

>>> reported_measurement("O=P(Oc1ccccc1)(Oc1ccccc1)[C@](O)(CCl)c1ccccc1")
64
>>> reported_measurement("CC1(C)COP(=O)([C@@](O)(CCl)c2ccc(Cl)cc2)OC1")
128
>>> reported_measurement("C[C@](O)(CCl)P(=O)(Oc1ccccc1)Oc1ccccc1")
256
>>> reported_measurement("O=C(O)c1cn(C2CC2)c2cc(N3CCNCC3)c(F)cc2c1=O [CIPROFLOXACIN]")
4
>>> reported_measurement("C[C@@H]1O[C@@H]1P(=O)(O)O [FOSFOMYCIN]")
32
>>> reported_measurement("O=P(Oc1ccccc1)(Oc1ccccc1)[C@](O)(CCl)c1ccc(Cl)cc1")
64
>>> reported_measurement("O=P(Oc1ccccc1)(Oc1ccccc1)[C@@]1(O)c2ccccc2C[C@@H]1Cl (mixture of isomers)")
256
>>> reported_measurement("CO/N=C(\\C(=O)N[C@@H]1C(=O)N2C(C(=O)O)=C(CSc3nc(=O)c(O)nn3C)CS[C@H]12)c1csc(N)n1 [CEFTRIAXONE]")
4
>>> reported_measurement("O=C(N[C@H](CO)[C@H](O)c1ccc([N+](=O)[O-])cc1)C(Cl)Cl [CHLORAMPHENICOL]")
128

---

MBC: recorded values
System: Escherichia coli
assay notes: Bactericidal activity against ESBL-producing Escherichia coli BW55 after 24 hrs by CFU counting assay
Assay type: functional
condition context: BW55, 24 h
endpoint name: MBC

>>> reported_measurement("O=C(N[C@H](CO)[C@H](O)c1ccc([N+](=O)[O-])cc1)C(Cl)Cl")
"128 µg/mL"
>>> reported_measurement("C[C@@H]1O[C@@H]1P(=O)(O)O")
"128 µg/mL"
>>> reported_measurement("O=P(Oc1ccccc1)(Oc1ccccc1)[C@](O)(CCl)c1ccccc1")
"64 µg/mL"
>>> reported_measurement("O=P(Oc1ccccc1)(Oc1ccccc1)[C@@]1(O)c2ccccc2C[C@@H]1Cl (mixture of isomers)")
"256 µg/mL"
>>> reported_measurement("CC1(C)COP(=O)([C@@](O)(CCl)c2ccc(Cl)cc2)OC1")
"128 µg/mL"
